List of IC50 tested on human TACE (Homo sapiens (Human), UniProt P78536).
Sequence (P78536 215-671): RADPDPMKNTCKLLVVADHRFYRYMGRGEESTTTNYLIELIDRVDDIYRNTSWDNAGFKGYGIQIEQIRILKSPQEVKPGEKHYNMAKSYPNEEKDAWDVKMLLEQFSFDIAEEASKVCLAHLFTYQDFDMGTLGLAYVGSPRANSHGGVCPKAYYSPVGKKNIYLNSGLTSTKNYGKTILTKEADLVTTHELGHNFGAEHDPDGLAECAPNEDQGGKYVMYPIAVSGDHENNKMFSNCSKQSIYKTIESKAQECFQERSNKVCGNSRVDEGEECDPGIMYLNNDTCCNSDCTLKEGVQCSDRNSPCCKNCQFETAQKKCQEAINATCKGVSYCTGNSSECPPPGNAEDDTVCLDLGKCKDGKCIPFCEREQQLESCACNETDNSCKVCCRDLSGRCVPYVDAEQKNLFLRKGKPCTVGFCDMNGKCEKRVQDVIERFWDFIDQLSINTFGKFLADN

{"COMPOUND": "COc1cc(N2CCN(C(=O)CC[C@@]3(C)NC(=O)NC3=O)C[C@@H]2C)cc(Cl)c1F", "MEASURED_VALUE": "> 100 nM"}
{"COMPOUND": "COc1cc(N2CCN(C(=O)CC[C@@]3(C)NC(=O)NC3=O)CC2C(F)(F)F)ccc1Cl (some centres unmarked)", "MEASURED_VALUE": "> 100 nM"}

stdin: Which IC50 value is on record for COc1cc(N2CCN(C(=O)CCC3(C4CC4)NC(=O)NC3=O)CC2)cc(F)c1F (centres unmarked) ?
stdout: > 100 nM

stdin: Similarly, CC[C@]1(C[C@H](C)C(=O)N2CCN(c3cc(F)c(F)c(OC)c3)CC2)NC(=O)NC1=O ?
stdout: > 100 nM

stdin: Follow-up item: COCC1(CC(C)C(=O)N2CCN(c3cc(F)c(F)c(OC)c3)[C@@H](C)C2)NC(=O)NC1=O (mixture of isomers)
stdout: > 100 nM

stdin: Consider next the compound COc1cc(N2CCN(C(=O)CC[C@@]3(C)NC(=O)NC3=O)C[C@@H]2C)cc(C)c1Cl in the same way.
stdout: > 100 nM

stdin: Request: COc1cc(F)cc(N2CCN(C(=O)CCC3(C4CC4)NC(=O)NC3=O)CC2)c1 (centres unmarked)
stdout: > 100 nM

stdin: # iterate: COc1cc(N2CCN(C(=O)CCC3(C)NC(=O)NC3=O)CC2)ccc1Cl (centres unmarked)
stdout: > 100 nM

* * *

- TARGET_ENTITY: human ADAMTS-5 (Homo sapiens (Human))
- Sequence (Q9UNA0 262-930): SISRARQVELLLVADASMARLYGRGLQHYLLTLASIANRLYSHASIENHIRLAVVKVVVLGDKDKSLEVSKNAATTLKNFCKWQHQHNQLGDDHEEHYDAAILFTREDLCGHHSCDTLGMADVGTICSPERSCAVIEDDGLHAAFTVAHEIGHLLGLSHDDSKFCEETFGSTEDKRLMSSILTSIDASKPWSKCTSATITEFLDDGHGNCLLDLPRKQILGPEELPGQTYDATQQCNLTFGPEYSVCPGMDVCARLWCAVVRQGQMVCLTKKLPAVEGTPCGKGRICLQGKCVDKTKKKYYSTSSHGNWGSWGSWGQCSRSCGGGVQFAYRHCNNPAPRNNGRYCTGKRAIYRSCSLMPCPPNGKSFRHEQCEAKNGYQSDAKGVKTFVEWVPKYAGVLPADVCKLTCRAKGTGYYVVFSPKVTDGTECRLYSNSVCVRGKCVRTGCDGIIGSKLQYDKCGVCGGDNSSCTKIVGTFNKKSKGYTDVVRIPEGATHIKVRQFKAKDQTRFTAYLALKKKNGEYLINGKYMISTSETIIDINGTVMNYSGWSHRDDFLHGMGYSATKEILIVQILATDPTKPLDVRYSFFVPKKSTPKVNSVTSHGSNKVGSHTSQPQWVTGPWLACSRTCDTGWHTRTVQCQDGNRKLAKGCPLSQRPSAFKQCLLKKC
- EXPERIMENT_DESCRIPTION: hADAMTS-5 TBIS-1 cleavage assay, Protocol 3
- Format: biochemical
- CONDITION_CONTEXT: 90 min at 37° C., read-out: hADAMTS-5 potency IC50
pIC50: −log10 of the molar value.
Measured pIC50 by item

// known answers, use as guide
{"COMPOUND": "COc1cc(N2CCN(C(=O)[C@@H](C)C[C@@]3(C)NC(=O)NC3=O)C[C@@H]2C)c(C)cc1Cl (mixture of isomers)", "EXPERIMENTAL_ENDPOINT": "pIC50", "MEASURED_VALUE": "< 7.00"}
{"COMPOUND": "COc1cc(N2CCN(C(=O)CC[C@H]3NC(=O)NC3=O)CC2)cc(F)c1F", "EXPERIMENTAL_ENDPOINT": "pIC50", "MEASURED_VALUE": "< 7.00"}
{"COMPOUND": "COCC1(CC(C)C(=O)N2CCN(c3cc(F)c(F)c(OC)c3)[C@@H](C)C2)NC(=O)NC1=O (mixture of isomers)", "EXPERIMENTAL_ENDPOINT": "pIC50", "MEASURED_VALUE": "7.30 to 7.60"}
{"COMPOUND": "COc1cc(F)cc(N2CCN(C(=O)CCC3(C4CC4)NC(=O)NC3=O)CC2)c1 (stereo not shown)", "EXPERIMENTAL_ENDPOINT": "pIC50", "MEASURED_VALUE": "7.00 to 7.30"}
{"COMPOUND": "COc1cc(N2CCN(C(=O)[C@@H](C)C[C@@]3(C)NC(=O)NC3=O)C[C@@H]2C)ccc1Cl (stereo in doubt)", "EXPERIMENTAL_ENDPOINT": "pIC50", "MEASURED_VALUE": "7.30 to 7.60"}
{"COMPOUND": "COc1cc(N2CCN(C(=O)CC[C@@]3(C4CC4)NC(=O)NC3=O)C[C@@H]2C)cc(Cl)c1F", "EXPERIMENTAL_ENDPOINT": "pIC50", "MEASURED_VALUE": "7.60 to 12.00"}

Please look at the following compound next.
stdin: What does the data say about its pIC50? Entry: COc1cc(N2CCN(C(=O)CC[C@H]3NC(=O)NC3=O)C[C@@H]2C)cc(Cl)c1F
stdout: 7.30 to 7.60
